# assayed target: Gal(b1-3)GlcNAc(b1-2)[Gal(b1-3)GlcNAc(b1-6)]Man(a1-6)[Gal(b1-3)GlcNAc(b1-2)Man(a1-3)]Man(b1-4)GlcNAc(b1-4)GlcNAc
# assay info: glycan array binding signal (z-score within array); higher = stronger binding
# details: glycan notation: IUPAC condensed, linker removed
The entries come from a sample that favours the strongest signals as a whole.
metric: glycan array binding signal (z-score)
Numbers only.

Task: Requested read-out: glycan array binding signal (z-score). Entry: Aap lectin (Staphylococcus epidermidis) (protein) VNLNYSSPFMSLLSMPADSSSNNTKNTIDIPPTTVKGRDNYDFYGRVDIESNPTDLNATNLTRYNYGQPPGTTTAGAVQFKNQVSFDKDFDFNIRVANNRQSNTTGADGWGFMFSKKDGDDFLKNGGILREKGTPSAAGFRIDTGYYNNDPLDKIQKQAGQGYRGYGTFVKNDSQGNTSKVGSGTPSTDFLNYADNTTNDLDGKFHGQKLNNVNLKYNASNQTFTATYAGKTWTATLSELGLSPTDSYNFLVTSS
Result: -0.728

Further cases:
Task: Requested read-out: glycan array binding signal (z-score). Entry: Pwp4 (Candida glabrata) (protein) MGSSHHHHHHSSGLVPRGSHMASVGNPITVSNVCSFPKNWHRTAGFRALTARLGIGIQSDSYKELLNYPGTFQLTTQQSSTTKPNFQISGLVGNIYGLTIVPSYLLVELTGYFVPPVSGEYTFSLEGSDDAAIIFIANPSTFKCGHVEDWPTAYDNDVTVTESIHATRTIYMIEGVAYPIRIAYYNGLSLGKLQASFTDPEGVKRVDWNGYIWRYDSCDTCSYV
Result: -0.162
